# Tested on: Enterococcus faecium (ATCC 19634)
# assay.name: Minimum Inhibitory Concentration, micro-dilution broth
# Format: cell-based
# measurement.setup: 24 h, 37° C.; read-out: Minimum Inhibitory Concentration E. faceium
Provide the recorded MIC for the entries that follow.
Respond with the figure and its unit, in that order.

Examples from the recorded data:
compound.structure: CCCCCCCCCCCC(=O)N(CCCNC(=O)[C@H](C)N)CCCNC(=O)[C@H](C)N.O=C(O)C(F)(F)F.O=C(O)C(F)(F)F
attribute.measured: MIC
observed.measurement: 73 µM

compound.structure: CCCCCCCCCCCCCCCC(=O)N(CCCNC(=O)[C@@H](N)[C@@H](C)CC)CCCNC(=O)[C@@H](N)[C@@H](C)CC.O=C(O)C(F)(F)F.O=C(O)C(F)(F)F
attribute.measured: MIC
observed.measurement: 3 µM

compound.structure: CCCCCCCCCCCCCC(=O)N(CCCNC(=O)[C@@H](N)C(C)C)CCCNC(=O)[C@@H](N)C(C)C.O=C(O)C(F)(F)F.O=C(O)C(F)(F)F
attribute.measured: MIC
observed.measurement: 3.6 µM

compound.structure: CCCCCCCCCCCCCCCC(=O)N(CCCNC(=O)[C@H](N)CCCCN)CCCNC(=O)[C@H](N)CCCCN.O=C(O)C(F)(F)F.O=C(O)C(F)(F)F
attribute.measured: MIC
observed.measurement: 2.7 µM

compound.structure: CCCCCCCCCCCC(=O)N(CCCNC(=O)[C@@H](N)C(C)C)CCCNC(=O)[C@@H](N)C(C)C.O=C(O)C(F)(F)F.O=C(O)C(F)(F)F
attribute.measured: MIC
observed.measurement: 25 µM

Next up:
Lookup: MIC / Enterococcus faecium (ATCC 19634) / "CCCCCCCCCCCC(=O)N(CCCNC(=O)[C@@H](N)CCCCN)CCCNC(=O)[C@@H](N)CCCCN.O=C(O)C(F)(F)F.O=C(O)C(F)(F)F"
32 µM

* * *

Record form. Attribute: MIC. Fill in for each entry.
# Tested on: Enterococcus faecium (ATCC 19634)
# assay.name: Minimum Inhibitory Concentration, micro-dilution broth
# Type: cell-based
# measurement.setup: 24 h, 37° C.; read-out: Minimum Inhibitory Concentration E. faceium
Give bare numbers, in µM.

Past entries and their recorded results:
compound.structure: CCCCCCCCCCCCCC(=O)N(CCCNC(=O)CN)CCCNC(=O)CN.O=C(O)C(F)(F)F.O=C(O)C(F)(F)F
MIC [µM]: 8.8
--
compound.structure: CCCCCCCCCCCCCCCC(=O)N(CCCNC(=O)[C@@H](N)CCCCN)CCCNC(=O)[C@@H](N)CCCCN.O=C(O)C(F)(F)F.O=C(O)C(F)(F)F
MIC [µM]: 1.1
--
compound.structure: CCCCCCCCCCCCCCCC(=O)N(CCCNC(=O)CN)CCCNC(=O)CN.O=C(O)C(F)(F)F.O=C(O)C(F)(F)F
MIC [µM]: 4

Take each entry in turn and give its MIC.
1. CCCCCCCCCCCCCC(=O)N(CCCNC(=O)[C@@H]1CCCN1)CCCNC(=O)[C@@H]1CCCN1.O=C(O)C(F)(F)F.O=C(O)C(F)(F)F
2. CCCCCCCCCCCCCC(=O)N(CCCNC(=O)[C@@H](N)CCCCN)CCCNC(=O)[C@@H](N)CCCCN.O=C(O)C(F)(F)F.O=C(O)C(F)(F)F

13
2
